- System: E. coli S30 extract (bacterial protein synthesis)
- method description: E. coli S30 extract coupled transcription-translation luciferase assay (inhibition of bacterial protein synthesis)
- Format: biochemical
- condition summary: % inhibition @ 1 μM, read-out: S30 IC50 (μM/% inhib.)
parameter: IC50

Consider the following illustrative entries.
INSERT INTO measurements (compound, tested_on, result) VALUES
  ('CC(Cc1ccc(-n2ccc(NC(=O)N3CCN(C(=O)C(C)(C)N)CC3)nc2=O)cc1)N1CCC(C2CNC2)CC1 (stereo not drawn)', 'E. coli S30 extract (bacterial protein synthesis)', '> 1 µM'),
  ('CC(C)(N)C(=O)N1CCN(C(=O)Nc2ccn(-c3ccc(CN4CC(N5CC(N)C5)C4)cc3)c(=O)n2)CC1', 'E. coli S30 extract (bacterial protein synthesis)', '< 0.5 µM');

Turning now to a further record.
Recorded IC50 for `CCN(Cc1ccc(-n2ccc(NC(=O)N3CCN(C(=O)C(C)(C)N)CC3)nc2=O)cc1F)[C@H]1CC[C@H](N)CC1` , please? < 0.5 µM

----------
- System: E. faecalis (Ef)
- method description: Broth microdilution minimum inhibitory concentration (MIC)
- Format: cell-based
- condition summary: Enterococcus faecalis, read-out: Ef + bicarb MIC
Counter-ions that a name gives are not always drawn.
parameter: MIC

Consider the following illustrative entries.
INSERT INTO results (compound, parameter, result) VALUES
  ('NC1CCCN(CCc2ccc(-n3ccc(NC(=O)N4CCN(C(=O)C5CCCN5)CC4)nc3=O)cc2)CC1 (centres unmarked) [Compound 310, hydrochloride salt]', 'MIC', '> 32 µg/mL'),
  ('NC1CCN(Cc2ccc(-n3ccc(NC(=O)N4C[C@H]5C[C@@H](N)C[C@H]5C4)nc3=O)cc2)CC1 [Compound 295, trifluoroacetate salt]', 'MIC', '> 32 µg/mL'),
  ('CC(C)(N)C(=O)N1CCN(C(=O)Nc2ccn(-c3ccc(CNC4C[C@@H](N)C[C@@H](N)C4)cc3)c(=O)n2)CC1 (some centres unmarked) [Compound 321, hydrochloride salt]', 'MIC', '> 32 µg/mL'),
  ('CN(Cc1ccc(-n2ccc(NC(=O)N3CCN(C(=O)C(C)(C)N)CC3)nc2=O)cc1)C1CC(N)CC(O)C1 (centres unmarked) [Compound 343, hydrochloride salt]', 'MIC', '> 32 µg/mL'),
  ('CC(C)(N)C(=O)N1CCN(C(=O)Nc2ccn(-c3ccc(CN[C@H]4CC[C@H](N)CC4)c(F)c3)c(=O)n2)CC1 [Compound 330, hydrochloride salt]', 'MIC', '> 32 µg/mL'),
  ('CCN(Cc1ccc(-n2ccc(NC(=O)N3CCN(C(=O)C(C)(C)N)CC3)nc2=O)cc1F)[C@H]1CC[C@H](N)CC1', 'MIC', '< 8 µg/mL');

Recorded MIC for CC(C)(N)C(=O)N1CCN(C(=O)Nc2ccn(-c3ccc(CN[C@H]4CC[C@H](N)CC4)c(OC(F)(F)F)c3)c(=O)n2)CC1 [Compound 332, hydrochloride salt] , please? 8 to 32 µg/mL

Now the compound CCN(Cc1ccc(-n2ccc(NC(=O)N3CCN(C(=O)CNC)CC3)nc2=O)cc1)C1CCC(N)CC1 (centres unmarked) [Compound 313, hydrochloride salt] > 32 µg/mL

Now the compound CCN(Cc1ccc(-n2ccc(NC(=O)N3CCN(C(=O)C(C)(C)N)CC3)nc2=O)cc1)[C@H]1CC[C@H](N)[C@@H](OC)C1 [Compound 341, hydrochloride salt] > 32 µg/mL

Now the compound CC(C)(N)C(N1CCN(C(=O)Nc2ccn(-c3ccc(CN4CCC(N)CC4)cc3)c(=O)n2)CC1)C(F)(F)F (centres unmarked) [Compound 291, hydrochloride salt] 8 to 32 µg/mL

----------
- Test system: P. aeruginosa (Pa)
- method description: Broth microdilution minimum inhibitory concentration (MIC)
- Type: cell-based
- condition summary: Pseudomonas aeruginosa, P. aeruginosa; growth medium supplemented with sodium bicarbonate; read-out: Pa MIC + bicarb
parameter: MIC

Recorded MIC for `CN(Cc1ccc(-n2ccc(NC(=O)N3CCN(C(=O)C(C)(C)N)CC3)nc2=O)cc1)CC1CNC1` , please? > 32 µg/mL

Now the compound Cc1cc(-n2ccc(NC(=O)N3CCN(C(=O)[C@@](C)(N)CO)CC3)nc2=O)ccc1CCN1CCCC(N)CC1 (stereo partly drawn) 8 to 32 µg/mL

Now the compound `C[C@@H]1CN(C(=O)Nc2ccn(-c3ccc(CN4CCC(N)CC4)cc3)c(=O)n2)CCN1C(=O)C(C)(C)N` > 32 µg/mL

----------
- Tested on: A. baumannii (Ab)
- method description: Broth microdilution minimum inhibitory concentration (MIC)
- Format: cell-based
- condition summary: Acinetobacter baumannii; A. baumannii; growth medium with sodium bicarbonate; read-out: Ab + bicarb MIC
parameter: MIC

Consider the following illustrative entries.
INSERT INTO results (molecule, parameter, result) VALUES
  ('CC(Cc1ccc(-n2ccc(NC(=O)N3CCN(C(=O)C(C)(C)N)CC3)nc2=O)cc1)N1CCC(N)CC1 (stereo not shown) [Compound 169]', 'MIC', '8 to 32 µg/mL'),
  ('CC(Cc1ccc(-n2ccc(NC(=O)N3CCN(C(=O)C(C)(C)N)CC3)nc2=O)cc1)NCC1CNC1 (stereo not shown) [Compound 165]', 'MIC', '> 32 µg/mL'),
  ('CC(CN1CC[C@@H](CN)C1)Oc1ccc(-n2ccc(NC(=O)N3CCN(C(=O)C(C)(C)N)CC3)nc2=O)cc1 (stereo partly shown) [Compound 185]', 'MIC', '> 32 µg/mL');

Turning now to a further record.
Recorded MIC for CC(CNC1CNC1)Oc1ccc(-n2ccc(NC(=O)N3CCN(C(=O)C(C)(C)N)CC3)nc2=O)cc1 (stereo not shown) [Compound 183] , please? > 32 µg/mL

----------
- Test system: P. aeruginosa (Pa)
- method description: Broth microdilution minimum inhibitory concentration (MIC)
- Format: cell-based
- condition summary: Pseudomonas aeruginosa, P. aeruginosa; growth medium with sodium bicarbonate; read-out: Pa MIC + bicarb
Known MIC of a selection of compounds

Consider the following illustrative entries.
INSERT INTO measurements (compound, result) VALUES
  ('C[C@@H]1CN(Cc2ccc(-n3ccc(NC(=O)N4CCN(C(=O)C(C)(C)N)CC4)nc3=O)cc2)CC[C@H]1N', '> 32 µg/mL'),
  ('CC(C)(N)C(=O)N1CCN(C(=O)Nc2ccn(-c3ccc(CN4CCC(N)C(C)(C)C4)cc3)c(=O)n2)CC1 (centres unmarked)', '> 32 µg/mL'),
  ('CC(C)(N)C(=O)N1CCN(C(=O)Nc2ccn(-c3ccc(CCN[C@H]4CC[C@@H](N)CC4)cc3)c(=O)n2)CC1', '> 32 µg/mL'),
  ('C[C@H]1CN(Cc2ccc(-n3ccc(NC(=O)N4CCN(C(=O)C(C)(C)N)CC4)nc3=O)cc2)CC[C@H]1N', '> 32 µg/mL'),
  ('CC(Cc1ccc(-n2ccc(NC(=O)N3CCN(C(=O)C(C)(C)N)CC3)nc2=O)cc1)N(C)CC1CNC1 (centres unmarked)', '> 32 µg/mL');

Recorded MIC for CN(Cc1ccc(-n2ccc(NC(=O)N3CCN(C(=O)C(C)(C)N)CC3)nc2=O)cc1Cl)C1CCC(N)CC1 (centres unmarked) , please? 8 to 32 µg/mL

Now the compound CCN(C(C)Cc1ccc(-n2ccc(NC(=O)N3CCN(C(=O)C(C)(C)N)CC3)nc2=O)cc1)[C@H]1CC[C@H](N)C1 (some centres unmarked) > 32 µg/mL

Now the compound `CCOC(=O)C1(CN)CN(Cc2ccc(-n3ccc(NC(=O)N4CCN(C(=O)C(C)(C)N)CC4)nc3=O)cc2)C1` > 32 µg/mL

Now the compound CCN(Cc1ccc(-n2ccc(NC(=O)N3CCN(C(=O)[C@@](C)(N)CO)CC3)nc2=O)cc1)C1CCC(N)CC1 (some centres unmarked) 8 to 32 µg/mL

Now the compound CC(C)N(Cc1ccc(-n2ccc(NC(=O)N3CCN(C(=O)C(C)(C)N)CC3)nc2=O)cc1)C1CCC(N)CC1 (centres unmarked) > 32 µg/mL

Now the compound `CC(C)(N)C(=O)N1CCN(C(=O)Nc2ccn(-c3ccc(CN4CC(N5CC(N)C5)C4)cc3)c(=O)n2)CC1` > 32 µg/mL

Now the compound CCN(Cc1ccc(-n2ccc(NC(=O)N3CCN(C(=O)C(C)(C)N)[C@H](C)C3)nc2=O)cc1)C1CCC(N)CC1 (some centres unmarked) 8 to 32 µg/mL

Now the compound CC(Cc1ccc(-n2ccc(NC(=O)N3CCN(C(=O)C(C)(C)N)CC3)nc2=O)cc1)N[C@@H]1CC[C@@H](N)C1 (some centres unmarked) > 32 µg/mL

Now the compound CC1CN(Cc2ccc(-n3ccc(NC(=O)N4CCN(C(=O)C(C)(C)N)CC4)nc3=O)cc2)CCC1N (centres unmarked) > 32 µg/mL
